system: hippocampal preparations (CA3 pyramidal cells); assay: Inhibition of excitation activity induced by convulsants (bicucullin) in hippocampal preparations; assay type: cell-based; details: 10 min; excitation induced by bicucullin (50 μM), compound perfused 10 minutes, adult female rat hippocampal preparations; read-out: inhibiting concentration 50 (IC50)
QUANTITY_NAME: IC50

Prompt: Identify measured IC50 associated with NCC(CC(=O)O)c1ccc(Cl)cc1 (stereo not shown) [baclofen, 4-amino-3-(4-chlorophenyl)butyric acid]
Response: ~50 µM
